Source listed as ChEMBL document CHEMBL1130231.

# subject of test: UniProtKB P30969
# Sequence (P30969 whole entry): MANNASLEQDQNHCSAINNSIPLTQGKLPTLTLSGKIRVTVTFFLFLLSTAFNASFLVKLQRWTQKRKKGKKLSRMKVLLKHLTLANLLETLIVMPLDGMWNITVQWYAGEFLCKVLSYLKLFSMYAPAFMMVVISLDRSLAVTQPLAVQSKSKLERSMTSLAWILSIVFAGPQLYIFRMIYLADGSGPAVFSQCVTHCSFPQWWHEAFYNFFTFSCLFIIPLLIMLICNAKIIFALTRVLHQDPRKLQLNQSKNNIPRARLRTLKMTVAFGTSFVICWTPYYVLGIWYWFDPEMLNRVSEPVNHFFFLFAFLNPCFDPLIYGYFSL
# protocol text: Inhibition of binding of radiolabeled histrelin to Gonadotropin-releasing hormone receptor (GnRHr) in rat pituitary gland membranes
measured quantity: pIC50
# pIC50 = -log10(concentration in molar units)

compound	pIC50
CC(=O)Nc1ccc(C[C@H](NC(=O)[C@H](CO)NC(=O)[C@@H](Cc2cccnc2)NC(=O)[C@H](NC(=O)c2cn[nH]c2N)NC(=O)[C@@H](Cc2ccc3ccccc3c2)NC(C)=O)C(=O)N[C@H](Cc2ccc(NC(C)=O)cc2)C(=O)N[C@@H](CC(C)C)C(=O)N[C@@H](CCCCNC(C)C)C(=O)N2CCC[C@H]2C(=O)N[C@H](C)C(N)=O)cc1	5.60
CC(=O)Nc1ccc(C[C@H](NC(=O)[C@H](CO)NC(=O)[C@H](NC(=O)c2ccncc2)NC(=O)[C@@H](Cc2ccc(Cl)cc2)NC(=O)[C@@H](Cc2ccc3ccccc3c2)NC(C)=O)C(=O)N[C@H](Cc2ccc(NC(C)=O)cc2)C(=O)N[C@@H](CC(C)C)C(=O)N[C@@H](CCCCNC(C)C)C(=O)N2CCC[C@H]2C(=O)N[C@H](C)C(N)=O)cc1 (single isomer, unassigned)	6.66

Attention now shifts to the item below.
Query: Given the entry CC(=O)Nc1ccc(C[C@H](NC(=O)[C@H](CO)NC(=O)[C@@H](Cc2cccnc2)NC(=O)[C@@H](Cc2ccc(Cl)cc2)NC(=O)[C@@H](Cc2ccc3ccccc3c2)NC(C)=O)C(=O)N[C@H](Cc2ccc(NC(C)=O)cc2)C(=O)N[C@@H](CC(C)C)C(=O)N[C@@H](CCCCNC(C)C)C(=O)N2CCC[C@H]2C(=O)N[C@@H](C)C(N)=O)cc1 , report its measured pIC50.
Response: 9.42
